# Test System: T1, human IL-11 (human, UniProt P20809 22-199)
# T1 construct: bought from Invigate; also called hIL-11; hIL11
# T1 sequence: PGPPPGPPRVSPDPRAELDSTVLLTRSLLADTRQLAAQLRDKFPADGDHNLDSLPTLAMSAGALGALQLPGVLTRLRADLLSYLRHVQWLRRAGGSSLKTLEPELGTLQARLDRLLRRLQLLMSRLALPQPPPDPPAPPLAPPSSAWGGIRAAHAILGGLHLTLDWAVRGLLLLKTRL
# Procedure Summary: SPR, antibody captured, IL-11 as analyte
Readout: Kd (nM)
Numeric only. Scale: nM

Worked examples, 4 binders total:
# Binder, Readout, Unit Descriptor, Recorded Result
rows = [
    ("TPP-19864 (antibody, V domains shown) VH: EVQLLESGGGLVQPGGSLRLSCAASGFTFSSYGMHWVRQAPGKGLEWVSVISGDGSYKYYADSVKGRFTISRDNSKNTLYLQMNSLRAEDTAVYYCAAGVPDYWGQGTLVTVSS VL: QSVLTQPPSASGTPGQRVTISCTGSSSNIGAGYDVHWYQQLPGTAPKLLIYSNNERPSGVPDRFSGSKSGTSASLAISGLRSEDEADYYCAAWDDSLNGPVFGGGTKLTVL", "Kd", "nM", 13),
    ("TPP-19866 (antibody, V domains shown) VH: EVQLLESGGGLVQPGGSLRLSCAASGFTFSSYGMHWVRQAPGKGLEWVSVISYDGGYKYYADSVKGRFTISRDNSKNTLYLQMNSLRAEDTAVYYCAAGVPDYWGQGTLVTVSS VL: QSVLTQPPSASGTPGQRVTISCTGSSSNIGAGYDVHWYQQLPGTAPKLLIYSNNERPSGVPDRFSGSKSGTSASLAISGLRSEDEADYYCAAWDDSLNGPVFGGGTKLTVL", "Kd", "nM", 8.5),
    ("TPP-19868 (antibody, V domains shown) VH: EVQLLESGGGLVQPGGSLRLSCAASGFTFSSYGMHWVRQAPGKGLEWVSVISYDGSYTYYADSVKGRFTISRDNSKNTLYLQMNSLRAEDTAVYYCAAGVPDYWGQGTLVTVSS VL: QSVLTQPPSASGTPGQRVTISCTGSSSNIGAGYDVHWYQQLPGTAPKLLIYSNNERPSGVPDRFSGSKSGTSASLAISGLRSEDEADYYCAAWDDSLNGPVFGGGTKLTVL", "Kd", "nM", 6.2),
    ("TPP-19867 (antibody, V domains shown) VH: EVQLLESGGGLVQPGGSLRLSCAASGFTFSSYGMHWVRQAPGKGLEWVSVISYDGSSKYYADSVKGRFTISRDNSKNTLYLQMNSLRAEDTAVYYCAAGVPDYWGQGTLVTVSS VL: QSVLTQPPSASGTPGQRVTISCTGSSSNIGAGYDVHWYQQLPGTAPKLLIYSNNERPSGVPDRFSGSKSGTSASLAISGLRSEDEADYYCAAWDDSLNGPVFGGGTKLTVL", "Kd", "nM", 27),
]

INPUT: Give the measured Kd of TPP-19861 (antibody, V domains shown) VH: EVQLLESGGGLVQPGGSLRLSCAASGFTFSSYAMHWVRQAPGKGLEWVSVISYDGSYKYYADSVKGRFTISRDNSKNTLYLQMNSLRAEDTAVYYCAAGVPDYWGQGTLVTVSS VL: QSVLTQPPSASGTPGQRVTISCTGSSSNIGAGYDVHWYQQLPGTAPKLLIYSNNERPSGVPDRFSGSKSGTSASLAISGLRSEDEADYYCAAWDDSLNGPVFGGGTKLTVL .
OUTPUT: 17

INPUT: Same lookup for TPP-19845 (antibody, V domains shown) VH: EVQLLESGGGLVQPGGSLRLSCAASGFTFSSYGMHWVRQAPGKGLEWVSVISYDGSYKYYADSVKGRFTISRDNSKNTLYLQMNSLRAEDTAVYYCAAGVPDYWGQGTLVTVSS VL: QSVLTQPPSASGTPGQRVTISCTGSSSNIGAGYDVYWYQQLPGTAPKLLIYSNNERPSGVPDRFSGSKSGTSASLAISGLRSEDEADYYCAAWDDSLNGPVFGGGTKLTVL , please.
OUTPUT: 20
